Parameter: IC50. Scope: all listed entries.
# Test system: HUVEC
# ASSAY: Cytotoxicity against HUVEC assessed as reduction in cell viability by MTT assay
# Format: cell-based, Homo sapiens
# REPORTED CONDITIONS: Homo sapiens, HUVEC; read-out: IC50

COMPOUND	IC50 / µM
CCCCCCCC/C=C\CCCCCCCC(=O)O[C@H](COC(=O)CCCCCCCC1CC1CCCCCCCC)CO[C@@H]1O[C@H](COC(C)=O)[C@@H](OC(C)=O)[C@H](OC(C)=O)[C@H]1OC(C)=O (stereo partly drawn)	122
CCCCCCCC/C=C\CCCCCCCC(=O)OC[C@H](CO[C@@H]1O[C@H](CO)[C@@H](O)[C@H](O)[C@H]1O)OC(=O)CCCCCCC/C=C\CCCCCCCC	110
CCCCCCCC/C=C\CCCCCCCC(=O)O[C@H](COC(=O)CCCCCCCC1CC1CCCCCCCC)CO[C@@H]1O[C@H](CO)[C@@H](O)[C@H](O)[C@H]1O (stereo partly drawn)	99.8
CCCCCCCCCCCC(=O)OC[C@H](CO[C@@H]1O[C@H](CO)[C@@H](O)[C@H](O)[C@H]1O)OC(=O)CCCCCCCCCCC	96.1
C=CCCCCCCCCC(=O)OC[C@H](CO[C@@H]1O[C@H](COC(C)=O)[C@@H](OC(C)=O)[C@H](OC(C)=O)[C@H]1OC(C)=O)OC(=O)CCCCCCCCC=C	119
COc1cccc2c1C(=O)c1c(O)c3c(c(O)c1C2=O)C[C@@](O)(C(=O)CO)C[C@@H]3O[C@H]1C[C@H](N)[C@H](O)[C@H](C)O1 [DOXORUBICIN]	79.6
CCCCCCCCC1CC1CCCCCCCC(=O)OC[C@H](CO[C@@H]1O[C@H](CO)[C@@H](O)[C@H](O)[C@H]1O)OC(=O)CCCCCCCC1CC1CCCCCCCC (stereo partly drawn)	120
C=CCCCCCCCCC(=O)OC[C@H](CO[C@@H]1O[C@H](CO)[C@@H](O)[C@H](O)[C@H]1O)OC(=O)CCCCCCCCC=C	126

Ref: ChEMBL document CHEMBL3758176
